Data export: IC50 values recorded with Epidermal growth factor receptor (Homo sapiens, UniProt P00533).
Sequence (P00533 whole entry): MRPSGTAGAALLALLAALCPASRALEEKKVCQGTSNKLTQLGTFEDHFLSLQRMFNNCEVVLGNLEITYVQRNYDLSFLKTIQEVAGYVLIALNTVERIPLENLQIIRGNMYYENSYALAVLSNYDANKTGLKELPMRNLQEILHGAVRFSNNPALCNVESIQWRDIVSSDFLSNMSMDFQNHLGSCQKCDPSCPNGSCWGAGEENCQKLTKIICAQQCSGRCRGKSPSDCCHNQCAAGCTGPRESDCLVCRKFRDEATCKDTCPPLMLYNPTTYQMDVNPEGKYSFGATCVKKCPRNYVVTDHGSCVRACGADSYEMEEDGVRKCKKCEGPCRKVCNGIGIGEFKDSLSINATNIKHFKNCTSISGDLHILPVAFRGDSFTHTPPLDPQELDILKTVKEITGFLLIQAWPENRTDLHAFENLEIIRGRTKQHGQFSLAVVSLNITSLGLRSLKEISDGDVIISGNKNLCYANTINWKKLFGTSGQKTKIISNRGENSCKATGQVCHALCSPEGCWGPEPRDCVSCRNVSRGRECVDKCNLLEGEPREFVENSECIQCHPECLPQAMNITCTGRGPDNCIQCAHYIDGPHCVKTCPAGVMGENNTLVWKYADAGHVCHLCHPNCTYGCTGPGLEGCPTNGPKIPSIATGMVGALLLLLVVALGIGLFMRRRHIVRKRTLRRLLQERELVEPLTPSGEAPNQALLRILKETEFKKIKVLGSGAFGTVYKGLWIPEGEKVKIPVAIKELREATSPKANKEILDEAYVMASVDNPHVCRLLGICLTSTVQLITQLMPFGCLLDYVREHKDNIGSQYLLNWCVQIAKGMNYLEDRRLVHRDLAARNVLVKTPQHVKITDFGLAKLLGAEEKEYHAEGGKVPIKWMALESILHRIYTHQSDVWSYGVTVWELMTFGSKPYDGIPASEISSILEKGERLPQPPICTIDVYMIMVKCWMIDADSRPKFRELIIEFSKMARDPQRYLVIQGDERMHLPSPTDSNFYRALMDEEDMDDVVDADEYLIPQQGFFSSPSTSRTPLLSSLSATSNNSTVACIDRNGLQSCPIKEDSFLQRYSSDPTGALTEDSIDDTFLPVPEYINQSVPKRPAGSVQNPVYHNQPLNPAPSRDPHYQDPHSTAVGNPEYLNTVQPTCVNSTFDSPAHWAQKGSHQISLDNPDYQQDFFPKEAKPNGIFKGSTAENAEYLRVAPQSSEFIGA
Dear colleague, please return just the value in µM, with no unit written.

Determine reported IC50 for `Oc1cccc(Nc2nnnc3sc4c(c23)CCC4)c1` ; test system: Epidermal growth factor receptor (Homo sapiens, UniProt P00533).
52.1

Tell me IC50 of `Oc1ccc(Nc2nnnc3sc4c(c23)CCC4)cc1` when tested on Epidermal growth factor receptor (Homo sapiens, UniProt P00533).
38.7

###

Tested on: T47D
Assay: Antiproliferative activity against human T47D cells assessed as inhibition of cell proliferation incubated for 48 hrs by cell-titer-Glo reagent based assay
Type: functional
measure: IC50

In one line, give reported IC50 of the entry `COc1ccc(N(C)c2nnnc3ccccc23)cc1` .
7 to 50 nM

###

Assay: Inhibition of binding of beta-FGF to heparin pre-incubated with beta-FGF prior to application to plate for 45 mins by ELISA
measure: IC50 (nM)
Could you give me the number in nM? Just the number is fine.

Quick one: give measured IC50 for `CC(C)(CC(=O)On1nnc2ccccc2c1=O)CN1C(=O)c2cc3oc(-c4ccc(Cl)cc4)cc3n2C1=S`
160

###

System: NCI-H1299
Assay: Antiproliferative activity against human NCI-H1299 cells assessed as inhibition of cell proliferation incubated for 48 hrs by cell-titer-Glo reagent based assay
Assay type: functional
Settings: NCI-H1299, 48 h
measure: IC50

Query IC50 for `COc1ccc(N(C)c2nnnc3ccccc23)cc1`
7 to 50 nM

###

Molecular target: Ribosomal protein S6 kinase beta-1 (Homo sapiens, UniProt P23443, T412E)
Sequence (P23443 whole entry T412E, the tested form may be a part): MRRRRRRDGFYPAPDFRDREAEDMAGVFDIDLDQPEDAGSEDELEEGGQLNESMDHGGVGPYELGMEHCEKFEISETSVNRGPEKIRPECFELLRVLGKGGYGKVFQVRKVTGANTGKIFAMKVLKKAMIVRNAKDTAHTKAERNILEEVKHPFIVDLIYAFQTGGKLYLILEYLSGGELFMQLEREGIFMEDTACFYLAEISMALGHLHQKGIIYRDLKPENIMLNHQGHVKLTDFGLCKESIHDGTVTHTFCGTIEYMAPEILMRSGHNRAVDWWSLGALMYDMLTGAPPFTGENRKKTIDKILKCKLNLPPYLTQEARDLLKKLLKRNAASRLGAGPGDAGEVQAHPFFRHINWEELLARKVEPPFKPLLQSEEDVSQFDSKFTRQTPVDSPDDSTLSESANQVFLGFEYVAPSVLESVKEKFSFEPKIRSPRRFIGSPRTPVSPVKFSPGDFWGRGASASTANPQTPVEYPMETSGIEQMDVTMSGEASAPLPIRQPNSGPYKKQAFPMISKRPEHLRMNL
Experiment: Inhibition of N-terminal 6His-tagged human recombinant p70S6K T412E mutant (1 to 421 residues) in Sf21 insect cells using FITC-AHA-AKRRRLSSLRA-OH substrate peptide incubated for 90 mins
pIC50: −log10 of the molar value.
measure: pIC50

The following molecules have reported results that may help.
smiles_entry=NC(=O)c1cccc2c(NCc3cccc(F)c3)nnnc12 measure=pIC50 result="6.00 to 6.30"
smiles_entry=NC(=O)c1cccc2c(NCc3cccc(C(F)(F)F)c3)nnnc12 measure=pIC50 result="6.30 to 7.00"
smiles_entry=NC(=O)c1cccc2c(N[C@H](CN3CCC3)c3ccc(F)c(C(F)(F)F)c3)nnnc12 measure=pIC50 result="> 7.60"
smiles_entry=CN(C)C[C@@H](Nc1nnnc2c(C(N)=O)cccc12)c1ccc(Cl)c(C#N)c1 measure=pIC50 result="7.00 to 7.60"
smiles_entry=NC(=O)c1cccc2c(N[C@H](CN3CCC3)c3ccc(Cl)c(C(F)(F)F)c3)nnnc12 measure=pIC50 result="> 7.60"

For Ribosomal protein S6 kinase beta-1 (Homo sapiens, UniProt P23443, T412E), give the measured pIC50 of the entry `NC(=O)c1cccc2c(NCc3ccccn3)nnnc12`
< 6.00

# lookup: Ribosomal protein S6 kinase beta-1 (Homo sapiens, UniProt P23443, T412E) pIC50, key = `NC(=O)c1cccc2c(NCc3cc(C(F)(F)F)ccn3)nnnc12`
< 6.00

Name the value of pIC50 reported for `COc1cc([C@@H](CN(C)C)Nc2nnnc3c(C(N)=O)cccc23)ccc1Cl` when tested on Ribosomal protein S6 kinase beta-1 (Homo sapiens, UniProt P23443, T412E).
7.00 to 7.60

###

System: DU-145
Test: Antiproliferative activity against human DU145 cells incubated for 4 days by MTT assay
Type: functional, cell-based
Settings: DU-145, 96 h
measure: IC50

Answer with reported IC50 of `COc1cc2c(Nc3ccc(F)c(Cl)c3)nnnc2cc1OCCCCl`
3.79 to 6.91 µM

###

Target: Ribosomal protein S6 kinase beta-1 (Homo sapiens, UniProt P23443, T412E)
Assay: Inhibition of N-terminal 6His-tagged human recombinant p70S6K T412E mutant (1 to 421 residues) in Sf21 insect cells using FITC-AHA-AKRRRLSSLRA-OH substrate peptide incubated for 90 mins
measure: IC50

Recorded results for 2 molecules are shown here.
smiles_entry=N#Cc1cc([C@@H](CN2CCC2)Nc2nnnc3c(C(N)=O)cccc23)ccc1Cl measure=IC50 result="< 25 nM"
smiles_entry=COc1cc([C@@H](CN2CCC2)Nc2nnnc3c(C(N)=O)cccc23)ccc1Cl measure=IC50 result="< 25 nM"

Report measured IC50 on Ribosomal protein S6 kinase beta-1 (Homo sapiens, UniProt P23443, T412E); entry: `CN(C)C[C@@H](Nc1nnnc2c(C(N)=O)cccc12)c1ccc(Cl)c(Cl)c1`
< 25 nM

###

Tested on: HT-29
Test: Antiproliferative activity against human HT-29 cells assessed as inhibition of cell proliferation incubated for 48 hrs by cell-titer-Glo reagent based assay
Format: functional
Details: HT-29, 48 h
measure: IC50

Using HT-29 as the test system, report measured IC50 of `COc1ccc(N(C)c2nnnc3ccccc23)cc1` .
7 to 50 nM

###

Let's look at some compounds and their measured IC50.
Target: Ribosomal protein S6 kinase beta-1 (Homo sapiens, UniProt P23443, T412E)
Assay: Inhibition of N-terminal 6His-tagged human recombinant p70S6K T412E mutant (1 to 421 residues) in Sf21 insect cells using FITC-AHA-AKRRRLSSLRA-OH substrate peptide incubated for 90 mins

// known answers, use as guide
smiles_entry=NC(=O)c1cccc2c(NCc3ccc(Cl)c(Cl)c3)nnnc12 measure=IC50 result="< 25 nM"
smiles_entry=CN(C)C[C@@H](Nc1nnnc2c(C(N)=O)cccc12)c1ccc(Cl)c(C(F)(F)F)c1 measure=IC50 result="< 25 nM"
smiles_entry=NC(=O)c1cccc2c(NCc3ccccc3)nnnc12 measure=IC50 result="501 to 1000 nM"
smiles_entry=NC(=O)c1cccc2c(N[C@H](CN3CCC3)c3ccc(Cl)c(Cl)c3)nnnc12 measure=IC50 result="< 25 nM"
smiles_entry=NC(=O)c1cccc2c(NCc3cccnc3)nnnc12 measure=IC50 result="> 1000 nM"
smiles_entry=NC(=O)c1cccc2c(NCc3ccc(Cl)c(C(F)(F)F)c3)nnnc12 measure=IC50 result="< 25 nM"

We now examine a further compound.
Please list IC50 recorded for the compound `NC(=O)c1cccc2c(NCc3ccc(C(F)(F)F)cc3)nnnc12`
25 to 100 nM
